- Read-out: Plasminogen activator inhibitor-1 (PAI1), SERPINE1 (gene 5054)
- assayInfo: BSK_BE3C_PAI1: BioMAP Diversity Plus: BE3C Assay for Plasminogen activator inhibitor-1 (PAI1) Biomarker Activity (AID 2283037)
- runParameters: primary human bronchial epithelial cells; actives raise or lower the signal
Calls of active or inactive are those of the source. The calls were made as follows: active = hit-call score of the fitted dose curve at least 0.9, where 1 is the maximum; inactive = score below 0.9.
quantity: AC50

Observe how each entry below is paired with its result.
[[record]]
molecule = "O=C1OC2(c3ccccc31)c1cc(I)c(O)c(I)c1Oc1c2cc(I)c(O)c1I"
result = "4.07 µM (active)"

[[record]]
molecule = "CCCCCc1ccc(O)cc1"
result = "20 µM (active)"

[[record]]
molecule = "O=C(c1ccccc1)c1ccccc1"
result = "inactive"

[[record]]
molecule = "CCCCC=O"
result = "inactive"

[[record]]
molecule = "O=C(O)CCC(F)(F)C(F)(F)C(F)(F)C(F)(F)C(F)(F)F"
result = "inactive"

[[record]]
molecule = "COCN(COC)c1nc(N(COC)COC)nc(N(COC)COC)n1"
result = "inactive"


Hello, I would appreciate it if you could give AC50 for each entry below.
1. OCC(CO)(CBr)CBr
2. Oc1c(Cl)cc(Cl)cc1Sc1cc(Cl)cc(Cl)c1O
3. CC(C)(C)c1ccc(O)c(O)c1
4. COc1cc(OC)nc(NC(=O)NS(=O)(=O)Nc2ccccc2C(=O)N(C)C)n1
5. Oc1cc2ccccc2cc1O
6. O=C(NCc1ncc(C(F)(F)F)cc1Cl)c1c(Cl)cccc1Cl
7. CCCCC(CC)C(=O)OCCOCCOCCOCCOC(=O)C(CC)CCCC (stereo not given)
8. CCCCC(CC)C(=O)O (stereo not given)

Result block:
inactive
4.59 µM (active)
inactive
inactive
inactive
inactive
inactive
inactive

Hello, I would appreciate it if you could give AC50 for each entry below.
1. C[C@]12CC[C@@H]3c4ccc(O)cc4CC[C@H]3[C@@H]1C[C@@H](O)[C@@H]2O
2. Cc1ccc(C(=O)c2ccccc2)cc1
3. CN(C)CCOC(c1ccccc1)c1ccccc1
4. C=CC(=C)CC/C=C(\C)CCC=C(C)C
5. Cc1[nH]nc2c1N=C(c1ccccc1Cl)c1cc([N+](=O)[O-])ccc1N2
6. NC(=NCCCCCCN=C(N)/N=C(\N)Nc1ccc(Cl)cc1)/N=C(\N)Nc1ccc(Cl)cc1

Result block:
["inactive", "inactive", "inactive", "inactive", "1.62 µM (active)", "1.46 µM (active)"]

Hello, I would appreciate it if you could give AC50 for each entry below.
1. O=C1NS(=O)(=O)c2ccccc21
2. CC(=O)Nc1ccc(O)cc1
3. O=C(O)CCC(F)(F)C(F)(F)C(F)(F)C(F)(F)C(F)(F)C(F)(F)F
4. C=CC(=O)OCCC(F)(F)C(F)(F)C(F)(F)C(F)(F)C(F)(F)C(F)(F)C(F)(F)C(F)(F)F
5. COC1=CC(=O)C[C@@H](C)[C@]12Oc1c(Cl)c(OC)cc(OC)c1C2=O

Result block:
["inactive", "inactive", "inactive", "inactive", "inactive"]

---

- assayInfo: Tanguay_ZF_120hpf_ANY: Oregon State University Tanguay Lab 120 Hour Post-fertilization zebrafish Assay for Any Mortality and Malformation (AID 2284404)
- Method: Tanguay_ZF_120hpf is a whole embryo, multiplexed endpoint assay using zebrafish larvae exposed for 120 hours post fertilization on a 96-well plate.Tanguay_ZF_120hpf_ANY is one of one assay component(s) measured or calculated from the Tanguay_ZF_120hpf assay. […] This assay endpoint, Tanguay_ZF_120hpf_ANY, was analyzed in the positive analysis fitting direction relative to DMSO as the negative control and baseline of activity. […]
Calls of active or inactive are those of the source. Rule for the calls: active = hit-call score of the fitted dose curve at least 0.9, where 1 is the maximum; inactive = score below 0.9.
Output constraint: value belongs to active, inactive

[[record]]
compoundstructure = "O=C(O)C(F)(F)OC(F)(F)C(F)(F)OC(F)(F)C(F)(F)OC(F)(F)C(F)(F)C(F)(F)C(F)(F)F"
category = "active"

[[record]]
compoundstructure = "O=C(O)CCC(F)(F)C(F)(F)C(F)(F)C(F)(F)C(F)(F)F"
category = "inactive"

[[record]]
compoundstructure = "C=CC(=O)OCCC(F)(F)C(F)(F)C(F)(F)C(F)(F)C(F)(F)C(F)(F)C(F)(F)C(F)(F)F"
category = "inactive"


API: the following record is the query input.
Query block: Record lookup: outcome of this test for "O=P(O)(O)CCC(F)(F)C(F)(F)C(F)(F)C(F)(F)C(F)(F)C(F)(F)F" ?
Result block: inactive

The measured values listed here are drawn from PubChem BioAssay (EPA / NIEHS).
